Here, compounds appear alongside IC50 reported for Glucocorticoid receptor (Homo sapiens, UniProt P04150) in the literature.

{"Compound": "COc1ccc2c(c1)CC[C@@H]1[C@@H]2CC[C@@]2(C)[C@H]1CC[C@@]2(O)C/C=C/CC(F)(F)C(F)(F)C(F)(F)F", "Modifier": "<", "IC50 [nM]": 15800}
{"Compound": "CN(CC(O)(CNc1cccc2c1cnn2-c1ccccc1)C(F)(F)F)C(=O)c1ccccc1 (racemic)", "Modifier": "=", "IC50 [nM]": 5.01}
{"Compound": "O=C1COc2ccc(C3=Nn4cnnc4SC3c3cccc(F)c3)cc2N1 (stereo not given)", "Modifier": ">", "IC50 [nM]": 10000}
{"Compound": "CCN(CC(O)(CNc1cccc2c1cnn2-c1ccc(F)cc1)C(F)(F)F)C(=O)c1c(C)cccc1C (racemic)", "Modifier": "=", "IC50 [nM]": 0.501}
{"Compound": "Cc1nn(C)c(-c2ccc(F)cc2F)c1-c1ccc2c(c1)NC(=O)CO2", "Modifier": "=", "IC50 [nM]": 2300}

====

Here, compounds appear alongside IC50 reported for Glucocorticoid receptor (Homo sapiens, UniProt P04150) in the literature.

{"Compound": "CC(Cc1c[nH]c2ccccc12)NS(=O)(=O)c1ccc(Cl)cc1Cl (configuration not stated)", "Target system": "Glucocorticoid receptor (Homo sapiens, UniProt P04150)", "Modifier": "=", "IC50, µM": 0.48}
{"Compound": "C[C@]12CC[C@@H]3c4ccc(O)cc4CC[C@H]3[C@@H]1CC[C@@]2(O)C/C=C/CC(F)(F)C(F)(F)C(F)(F)F", "Target system": "Glucocorticoid receptor (Homo sapiens, UniProt P04150)", "Modifier": "<", "IC50, µM": 5.5}
{"Compound": "C=CCOC(CC=C)C1=CC(C)(C)Nc2ccc(-c3ccccc3OC)cc21 (configuration not stated)", "Target system": "Glucocorticoid receptor (Homo sapiens, UniProt P04150)", "Modifier": ">", "IC50, µM": 2}
{"Compound": "CCCN(CC(O)(CNC(=O)c1cnn(-c2ccc(F)cc2)c1N)C(F)(F)F)C(=O)c1c(F)cccc1F (racemic)", "Target system": "Glucocorticoid receptor (Homo sapiens, UniProt P04150)", "Modifier": "=", "IC50, µM": 0.0158}
{"Compound": "Cc1cc(-c2ccc3c(c2)NC(=O)CO3)n(-c2ccccc2)n1", "Target system": "Glucocorticoid receptor (Homo sapiens, UniProt P04150)", "Modifier": ">", "IC50, µM": 10}
{"Compound": "CC(Cc1c[nH]c2ccccc12)NS(=O)(=O)c1ccc(Cl)c(Cl)c1 (configuration not stated)", "Target system": "Glucocorticoid receptor (Homo sapiens, UniProt P04150)", "Modifier": "=", "IC50, µM": 6.9}
{"Compound": "CC(C)(CC(O)(Cc1ccccn1)C(=O)Nc1ccc2c(c1)COC2=O)c1ccccc1 (configuration not stated)", "Target system": "Glucocorticoid receptor (Homo sapiens, UniProt P04150)", "Modifier": "=", "IC50, µM": 0.76}
{"Compound": "Cc1cc(-c2c(C)nn(C)c2-c2ccc(F)cc2)cc2c1OCC(=O)N2", "Target system": "Glucocorticoid receptor (Homo sapiens, UniProt P04150)", "Modifier": "=", "IC50, µM": 2.5}
{"Compound": "O=c1[nH]c2cc(/C=C3\\c4ccccc4COc4cc(F)ccc43)ccc2n1[C@@H]1C[C@@H]2COCCN2C1", "Target system": "Glucocorticoid receptor (Homo sapiens, UniProt P04150)", "Modifier": ">", "IC50, µM": 25}
{"Compound": "COc1cc(CNC(=O)[C@@]2(Cc3ccccc3)OC(=O)N([C@@H]3CCc4ccccc43)C2=O)cc(OC)c1", "Target system": "Glucocorticoid receptor (Homo sapiens, UniProt P04150)", "Modifier": ">", "IC50, µM": 20}
{"Compound": "Cc1cc(C)c(S(=O)(=O)NCCc2c[nH]c3ccccc23)c(C)c1", "Target system": "Glucocorticoid receptor (Homo sapiens, UniProt P04150)", "Modifier": ">", "IC50, µM": 2}
{"Compound": "COc1ccc(S(=O)(=O)NC(C)Cc2c[nH]c3ccccc23)cc1 (configuration not stated)", "Target system": "Glucocorticoid receptor (Homo sapiens, UniProt P04150)", "Modifier": ">", "IC50, µM": 10}
{"Compound": "COc1ccc(F)cc1-c1ccc2c(c1)C(C(C)OCCc1ccccc1)=CC(C)(C)N2 (configuration not stated)", "Target system": "Glucocorticoid receptor (Homo sapiens, UniProt P04150)", "Modifier": "=", "IC50, µM": 0.195}
{"Compound": "CCC(CO)(c1ccc(Cl)cc1)n1ccc2c(NS(C)(=O)=O)cc(C#N)cc21 (racemic)", "Target system": "Glucocorticoid receptor (Homo sapiens, UniProt P04150)", "Modifier": "=", "IC50, µM": 1.05}
{"Compound": "C[C@H]1C[C@@H]2[C@H]3CCC4=CC(=O)C=C[C@@]4(C)[C@]3(F)[C@H](O)C[C@@]2(C)[C@]1(O)C(=O)CSCCNC(=S)NCCNC(=O)c1cc(NC(=O)c2cc(NC(=O)c3cc(NC(=O)c4nccn4C)cn3C)cn2C)cn1C", "Target system": "Glucocorticoid receptor (Homo sapiens, UniProt P04150)", "Modifier": "=", "IC50, µM": 0.026}
{"Compound": "CC(=O)Nc1ccc(S(=O)(=O)NC(C)Cc2c[nH]c3ccccc23)cc1 (configuration not stated)", "Target system": "Glucocorticoid receptor (Homo sapiens, UniProt P04150)", "Modifier": ">", "IC50, µM": 10}
{"Compound": "Nc1c(C(=O)NCC(O)(CN(CCO)C(=O)c2c(F)cccc2F)C(F)(F)F)cnn1-c1ccc(F)cc1 (configuration not stated)", "Target system": "Glucocorticoid receptor (Homo sapiens, UniProt P04150)", "Modifier": "=", "IC50, µM": 0.0158}

====

Target: Glucocorticoid receptor (Homo sapiens)
Sequence (P04150 whole entry): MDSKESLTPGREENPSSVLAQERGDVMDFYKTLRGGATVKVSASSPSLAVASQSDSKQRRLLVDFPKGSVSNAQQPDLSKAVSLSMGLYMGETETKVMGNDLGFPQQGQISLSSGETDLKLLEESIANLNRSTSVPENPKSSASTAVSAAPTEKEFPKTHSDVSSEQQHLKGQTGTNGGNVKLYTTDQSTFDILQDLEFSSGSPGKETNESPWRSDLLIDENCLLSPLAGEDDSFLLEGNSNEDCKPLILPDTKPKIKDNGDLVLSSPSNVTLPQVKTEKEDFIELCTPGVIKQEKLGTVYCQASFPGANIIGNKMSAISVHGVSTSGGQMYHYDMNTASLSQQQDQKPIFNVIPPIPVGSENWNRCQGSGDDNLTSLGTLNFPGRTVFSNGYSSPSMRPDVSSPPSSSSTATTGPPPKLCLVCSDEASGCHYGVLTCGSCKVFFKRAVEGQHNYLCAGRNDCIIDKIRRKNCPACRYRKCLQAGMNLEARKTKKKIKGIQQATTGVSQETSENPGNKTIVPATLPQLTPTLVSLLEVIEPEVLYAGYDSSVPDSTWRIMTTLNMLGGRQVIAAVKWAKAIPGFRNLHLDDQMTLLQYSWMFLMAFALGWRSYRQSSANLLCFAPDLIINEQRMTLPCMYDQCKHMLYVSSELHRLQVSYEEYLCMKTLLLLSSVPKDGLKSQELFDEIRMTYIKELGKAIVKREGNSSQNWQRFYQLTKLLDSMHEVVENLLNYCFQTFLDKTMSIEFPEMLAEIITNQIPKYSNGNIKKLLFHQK
pIC50: −log10 of the molar value.
Here, molecules appear alongside pIC50 reported for Glucocorticoid receptor (Homo sapiens) in the literature.
Measured property: pIC50

{"Molecule": "COc1ccc(F)cc1C(C)(C)CC(O)(Cc1cccc(C#N)c1)C(F)(F)F (centres undefined)", "Target system": "Glucocorticoid receptor (Homo sapiens)", "Modifier": "=", "Numeric value": 7.09}
{"Molecule": "COC(=O)[C@H](Cc1c[nH]c2ccccc12)NS(=O)(=O)c1c(C)cc(C)cc1C", "Target system": "Glucocorticoid receptor (Homo sapiens)", "Modifier": "<", "Numeric value": 5.70}
{"Molecule": "Cc1cccc(C(O)(c2ccc3c(cnn3-c3ccc(F)cc3)c2)C(F)(F)F)c1 (centres undefined)", "Target system": "Glucocorticoid receptor (Homo sapiens)", "Modifier": "=", "Numeric value": 7.28}
{"Molecule": "CC1=CC(C)(C)Nc2ccc3c(c21)C(c1ccc(Cl)c(C)c1)Oc1ccccc1-3 (centres undefined)", "Target system": "Glucocorticoid receptor (Homo sapiens)", "Modifier": "=", "Numeric value": 6.56}
{"Molecule": "CCC(CO)(c1ccc(Cl)cc1)n1ccc2c(NS(C)(=O)=O)cc(Br)cc21 (racemic)", "Target system": "Glucocorticoid receptor (Homo sapiens)", "Modifier": "=", "Numeric value": 6.69}
{"Molecule": "C[C@]12CC[C@@H]3c4ccc(O)cc4CC[C@H]3[C@@H]1CC[C@@]2(O)C/C=C/CC(F)(C(F)(F)F)C(F)(F)F", "Target system": "Glucocorticoid receptor (Homo sapiens)", "Modifier": ">", "Numeric value": 4.87}
{"Molecule": "CC(Cc1c[nH]c2ccccc12)NS(=O)(=O)c1ccc(-c2ccccc2)cc1 (centres undefined)", "Target system": "Glucocorticoid receptor (Homo sapiens)", "Modifier": "=", "Numeric value": 5.59}
{"Molecule": "O=C1COc2ccc(C3=Nc4ccccc4SC3c3ccccc3)cc2N1 (centres undefined)", "Target system": "Glucocorticoid receptor (Homo sapiens)", "Modifier": "=", "Numeric value": 6.02}
{"Molecule": "Cc1cc(-c2ccc3c(c2)NC(=O)CO3)n(-c2ccc(F)cc2)n1", "Target system": "Glucocorticoid receptor (Homo sapiens)", "Modifier": "=", "Numeric value": 5.16}
{"Molecule": "C=CCSC(C)C1=CC(C)(C)Nc2ccc(-c3ccccc3OC)cc21 (centres undefined)", "Target system": "Glucocorticoid receptor (Homo sapiens)", "Modifier": "=", "Numeric value": 6.94}
{"Molecule": "CC1=CC(C)(C)Nc2ccc3c(c21)C(c1ccc(Br)cc1)Oc1ccccc1-3 (centres undefined)", "Target system": "Glucocorticoid receptor (Homo sapiens)", "Modifier": "=", "Numeric value": 6.94}
{"Molecule": "CC1=CC(C)(C)Nc2ccc3c(c21)C(c1cccc(Br)c1)Oc1ccccc1-3 (centres undefined)", "Target system": "Glucocorticoid receptor (Homo sapiens)", "Modifier": "=", "Numeric value": 6.58}
{"Molecule": "COc1ccc(F)cc1C(C)(C)CC(O)(Cc1cc(C)cc(Cl)c1)C(F)(F)F (centres undefined)", "Target system": "Glucocorticoid receptor (Homo sapiens)", "Modifier": "=", "Numeric value": 7.34}
{"Molecule": "Cc1cc(S(=O)(=O)NC(C)Cc2c[nH]c3ccccc23)c(C)cc1Cl (centres undefined)", "Target system": "Glucocorticoid receptor (Homo sapiens)", "Modifier": "=", "Numeric value": 5.74}
{"Molecule": "Cn1c(-c2ccccn2)c(C2CCCC2)c2ccc(C(=O)NC3(C(=O)Nc4ccc(/C=C/C(=O)O)cc4)CCC3)cc21", "Target system": "Glucocorticoid receptor (Homo sapiens)", "Modifier": ">", "Numeric value": 5.00}
{"Molecule": "CC(Cc1c[nH]c2ccccc12)NS(=O)(=O)c1cc(Cl)ccc1Cl (centres undefined)", "Target system": "Glucocorticoid receptor (Homo sapiens)", "Modifier": "=", "Numeric value": 5.89}
{"Molecule": "Cc1ccccc1CC(O)(CC(C)(C)c1cc(F)ccc1O)C(=O)Nc1ccc2c(c1)COC2=O (centres undefined)", "Target system": "Glucocorticoid receptor (Homo sapiens)", "Modifier": "=", "Numeric value": 7.32}
{"Molecule": "COc1ccc(F)cc1C(C)(C)CC(O)(Cc1cc(C)c(C#N)c(C)c1)C(F)(F)F (centres undefined)", "Target system": "Glucocorticoid receptor (Homo sapiens)", "Modifier": "=", "Numeric value": 7.96}
{"Molecule": "CC(Cc1c[nH]c2ccccc12)NS(=O)(=O)c1ccc(Cl)cc1 (centres undefined)", "Target system": "Glucocorticoid receptor (Homo sapiens)", "Modifier": "=", "Numeric value": 5.68}
